# pKi per record follows
target-or-test-system: UniProt:Q15761
Sequence (Q15761 whole entry): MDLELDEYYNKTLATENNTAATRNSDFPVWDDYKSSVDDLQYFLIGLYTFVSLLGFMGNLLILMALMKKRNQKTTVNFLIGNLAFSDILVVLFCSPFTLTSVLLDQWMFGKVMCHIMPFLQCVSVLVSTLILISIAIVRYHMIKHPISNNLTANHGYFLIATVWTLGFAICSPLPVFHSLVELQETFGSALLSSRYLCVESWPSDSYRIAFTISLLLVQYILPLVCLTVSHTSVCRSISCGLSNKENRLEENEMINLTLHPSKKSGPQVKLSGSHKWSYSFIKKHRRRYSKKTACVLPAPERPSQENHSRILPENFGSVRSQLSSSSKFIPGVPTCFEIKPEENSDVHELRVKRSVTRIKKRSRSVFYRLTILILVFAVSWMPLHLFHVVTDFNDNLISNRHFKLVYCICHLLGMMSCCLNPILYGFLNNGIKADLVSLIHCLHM
procedure-text: Displacement of [3H]propionyl-pNPY from human Y5 receptor expressed in human HEC1B cells
Assay type: cell-based
run-parameters: read-out: Ki
pKi: −log10 of the molar value.

Examples from the recorded data:
[
  {
    "entry-smiles": "CC(C)C[C@H](NC(=O)[C@H](CCCNC(=N)N)NC(=O)[C@H](Cc1ccc(O)cc1)NC(=O)[C@@H](N)CCCNC(=N)N)C(=O)N[C@@H](CCCNC(=N)N)C(=O)N[C@@H](Cc1ccc(O)cc1)C(N)=O",
    "target-or-test-system": "UniProt:Q15761",
    "observation-type": "pKi",
    "readout-value": "< 5.52"
  },
  {
    "entry-smiles": "CN[C@@H](CCCNC(=N)N)C(=O)N[C@@H](CC(C)C)C(=O)N[C@@H](CCCNC(=N)N)C(=O)N[C@@H](Cc1ccc(O)cc1)C(N)=O",
    "target-or-test-system": "UniProt:Q15761",
    "observation-type": "pKi",
    "readout-value": "< 5.00"
  }
]

pKi recorded for this compound, CC(C)C[C@H](NC(=O)[C@H](CCCNC(=N)N)NC(=O)[C@H](Cc1ccc(O)cc1)NC(=O)[C@H](CCCNC(=N)N)NC(=O)CCC(=O)O)C(=O)N[C@@H](CCCNC(=N)N)C(=O)N[C@@H](Cc1ccc(O)cc1)C(N)=O , is < 5.00

----------
target-or-test-system: Neuropeptide Y receptor type 4 (Homo sapiens, UniProt P50391)
Sequence (P50391 whole entry): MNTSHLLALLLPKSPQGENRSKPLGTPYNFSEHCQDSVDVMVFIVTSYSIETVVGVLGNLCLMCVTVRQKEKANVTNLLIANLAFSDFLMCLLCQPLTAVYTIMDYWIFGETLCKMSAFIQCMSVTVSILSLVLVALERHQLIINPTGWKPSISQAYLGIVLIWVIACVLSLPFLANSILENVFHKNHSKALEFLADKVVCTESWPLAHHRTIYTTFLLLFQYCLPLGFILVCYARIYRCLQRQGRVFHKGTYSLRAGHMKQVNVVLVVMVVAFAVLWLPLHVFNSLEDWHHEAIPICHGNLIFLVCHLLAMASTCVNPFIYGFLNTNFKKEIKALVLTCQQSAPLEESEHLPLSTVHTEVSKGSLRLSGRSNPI
procedure-text: Agonist activity at human Y4R expressed in HEK293T cells co-expressing ARRB1 assessed as induction of beta-arrestin1 recruitment measured for 40 mins by D-luciferin based luminescence assay
Format: cell-based, HEK-293T
run-parameters: read-out: EC50
Square brackets hold non-standard residues; d marks the D form. Peptide text beside a SMILES is read from it. ξ: configuration not given here. ξOrn = NCCCC(N)C(=O)O
observation-type: EC50 (nM)

Examples from the recorded data:
[
  {
    "compound": "CC(C)C[C@H](NC(=O)[C@@H](N)CCCNC(=N)N)C(=O)N[C@@H](CCCNC(=N)N)C(=O)N[C@@H](Cc1ccc(O)cc1)C(N)=O",
    "unit-of-measurement": "nM",
    "readout-value": 280
  },
  {
    "compound": "CC(=O)N[C@@H](CCCNC(=N)N)C(=O)NC(CCCN)C(=O)NCC(=O)N[C@@H](Cc1c[nH]c2ccccc12)C(=O)N[C@@H](CCCNC(=N)N)C(=O)N[C@@H](CC(C)C)C(=O)N[C@@H](CCCNC(=N)N)C(=O)N[C@@H](Cc1ccc(O)cc1)C(N)=O (stereo not given in full) (Ac-R[ξOrn]GWRLRY-NH2)",
    "unit-of-measurement": "nM",
    "readout-value": 170
  }
]

(I) CC(C)C[C@H](NC(=O)[C@H](N)CCCNC(=N)N)C(=O)N[C@@H](CCCNC(=N)N)C(=O)N[C@@H](Cc1ccc(O)cc1)C(N)=O
(II) CC(C)C[C@H](NC(=O)[C@H](CCCNC(=N)N)NC(=O)[C@H](Cc1ccc(O)cc1)NC(=O)[C@@H](N)CCCNC(=N)N)C(=O)N[C@@H](CCCNC(N)=O)C(=O)N[C@@H](Cc1ccc(O)cc1)C(N)=O
Which entry has a larger number for EC50, I or II ? State the label of the item chosen.
I

----------
target-or-test-system: Neuropeptide Y receptor type 4 (Homo sapiens, UniProt P50391)
procedure-text: Antagonist activity at human Y4R expressed in HEK293T cells co-expressing ARRB1 assessed as inhibition of hPP-induced beta-arrestin1 recruitment preincubated for 20 mins followed by hPP addition and measured for 40 mins by D-luciferin based luminescence assay
Format: cell-based
run-parameters: HEK-293T
observation-type: pKb

[
  {
    "substance": "Ac-RYRWRY-NH2",
    "target-or-test-system": "Neuropeptide Y receptor type 4 (Homo sapiens, UniProt P50391)",
    "observation-type": "pKb",
    "readout-value": 7.02
  },
  {
    "substance": "Ac-RGYRWRW-NH2",
    "target-or-test-system": "Neuropeptide Y receptor type 4 (Homo sapiens, UniProt P50391)",
    "observation-type": "pKb",
    "readout-value": 6.1
  },
  {
    "substance": "H-RYRWRY-NH2",
    "target-or-test-system": "Neuropeptide Y receptor type 4 (Homo sapiens, UniProt P50391)",
    "observation-type": "pKb",
    "readout-value": 7.14
  },
  {
    "substance": "Ac-RGYRWRY-NH2",
    "target-or-test-system": "Neuropeptide Y receptor type 4 (Homo sapiens, UniProt P50391)",
    "observation-type": "pKb",
    "readout-value": 6.96
  }
]

----------
target-or-test-system: Neuropeptide Y receptor type 4 (Homo sapiens)
procedure-text: Displacement of [3H]UR-KK200 from human Y4 receptor expressed in CHO cells co-expressing Gqi5-mtAEQ measured after 90 mins by scintillation counting analysis
Type: cell-based
run-parameters: read-out: Ki
pKi: −log10 of the molar value. Square brackets hold non-standard residues; d marks the D form. Peptide text beside a SMILES is read from it. ξ: configuration not given here. ξOrn = NCCCC(N)C(=O)O
observation-type: pKi

Examples from the recorded data:
[
  {
    "compound": "CN[C@@H](CCCNC(=N)N)C(=O)N[C@@H](CC(C)C)C(=O)N[C@@H](CCCNC(=N)N)C(=O)N[C@@H](Cc1ccc(O)cc1)C(N)=O",
    "pKi": 8.41
  },
  {
    "compound": "CC(C)C[C@H](NC(=O)[C@@H](N)CCCNC(=N)N)C(=O)N[C@@H](CCCNC(=N)N)C(=O)N[C@H](Cc1ccc(O)cc1)C(N)=O",
    "pKi": 5.82
  },
  {
    "compound": "CC(=O)N[C@@H](CCCNC(=N)N)C(=O)N[C@@H](Cc1ccc(O)cc1)C(=O)N[C@@H](CCCNC(N)=O)C(=O)N[C@@H](CC(C)C)C(=O)N[C@@H](CCCNC(=N)N)C(=O)N[C@@H](Cc1ccc(O)cc1)C(N)=O",
    "pKi": 6.92
  },
  {
    "compound": "CC(=O)N[C@@H](CCCNC(=N)N)C(=O)NC(CCCN)C(=O)NCC(=O)N[C@@H](Cc1c[nH]c2ccccc12)C(=O)N[C@@H](CCCNC(=N)N)C(=O)N[C@@H](CC(C)C)C(=O)N[C@@H](CCCNC(=N)N)C(=O)N[C@@H](Cc1ccc(O)cc1)C(N)=O (stereo partly drawn) (Ac-R[ξOrn]GWRLRY-NH2)",
    "pKi": 8.37
  },
  {
    "compound": "CC(C)C[C@H](NC(=O)[C@H](CCCNC(=N)N)NC(=O)[C@H](Cc1ccc(O)cc1)NC(=O)[C@@H](N)CCCNC(=N)N)C(=O)N[C@@H](CCCNC(N)=O)C(=O)N[C@@H](Cc1ccc(O)cc1)C(N)=O",
    "pKi": 7.20
  }
]

(a) CC(=O)N[C@@H](CCCNC(=N)N)C(=O)N[C@@H](Cc1c[nH]c2ccccc12)C(=O)N[C@@H](CCCNC(=N)N)C(=O)N[C@@H](CC(C)C)C(=O)N[C@@H](CCCNC(=N)N)C(=O)N[C@@H](Cc1ccc(O)cc1)C(N)=O
(b) CC(C)C[C@H](NC(=O)[C@H](N)CCCNC(=N)N)C(=O)N[C@@H](CCCNC(=N)N)C(=O)N[C@@H](Cc1ccc(O)cc1)C(N)=O
Would you kindly point out which of a and b has the smaller pKi figure? State the label of the item chosen.
b
(b: 8.13, a: 8.85)

----------
target-or-test-system: Neuropeptide Y receptor type 1 (Homo sapiens, UniProt P25929)
Sequence (P25929 whole entry): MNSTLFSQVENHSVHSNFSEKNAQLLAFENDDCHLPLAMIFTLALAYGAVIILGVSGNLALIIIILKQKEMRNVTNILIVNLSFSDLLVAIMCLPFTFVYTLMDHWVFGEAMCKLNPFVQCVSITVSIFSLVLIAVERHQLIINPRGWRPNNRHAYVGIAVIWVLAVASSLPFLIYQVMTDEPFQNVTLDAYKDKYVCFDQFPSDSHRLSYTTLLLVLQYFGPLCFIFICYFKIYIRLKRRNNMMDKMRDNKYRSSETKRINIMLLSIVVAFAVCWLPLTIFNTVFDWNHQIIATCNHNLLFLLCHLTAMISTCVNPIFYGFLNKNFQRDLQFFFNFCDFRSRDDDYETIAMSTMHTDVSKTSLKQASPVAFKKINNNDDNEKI
procedure-text: Displacement of [3H]UR-MK299 from Y1 receptor in human SK-N-MC cells
Type: cell-based
run-parameters: read-out: pKi (converted)
observation-type: Ki

Examples from the recorded data:
[
  {
    "entry-smiles": "CC(C)C[C@H](NC(=O)[C@H](CCCNC(=N)N)NC(=O)[C@H](Cc1ccc(O)cc1)NC(=O)[C@@H](N)CCCNC(=N)N)C(=O)N[C@@H](CCCNC(N)=O)C(=O)N[C@@H](Cc1ccc(O)cc1)C(N)=O",
    "target-or-test-system": "Neuropeptide Y receptor type 1 (Homo sapiens, UniProt P25929)",
    "observation-type": "Ki",
    "readout-value": "> 3.16 µM"
  },
  {
    "entry-smiles": "CC(C)C[C@H](NC(=O)[C@H](CCCNC(=N)N)NC(=O)[C@H](Cc1ccc(O)cc1)NC(=O)[C@@H](N)CCCNC(=N)N)C(=O)N[C@@H](CCCNC(=N)N)C(=O)N[C@@H](Cc1ccc(O)cc1)C(N)=O",
    "target-or-test-system": "Neuropeptide Y receptor type 1 (Homo sapiens, UniProt P25929)",
    "observation-type": "Ki",
    "readout-value": "> 3.16 µM"
  }
]

The molecule CC(C)C[C@H](NC(=O)[C@@H](N)CCCNC(=N)N)C(=O)N[C@@H](CCCNC(=N)N)C(=O)N[C@@H](Cc1ccc(O)cc1)C(N)=O , tested on Neuropeptide Y receptor type 1 (Homo sapiens, UniProt P25929), showed Ki of > 10 µM
